# target.system: T1, human PD-L1-Fc mutant E58A (human)
# T1 construct: Position 58 counts on native human PD-L1 (NP_054862.1); also called E58A mutant
# T1 sequence (chain, as listed by the source E58A E58A limits assumed): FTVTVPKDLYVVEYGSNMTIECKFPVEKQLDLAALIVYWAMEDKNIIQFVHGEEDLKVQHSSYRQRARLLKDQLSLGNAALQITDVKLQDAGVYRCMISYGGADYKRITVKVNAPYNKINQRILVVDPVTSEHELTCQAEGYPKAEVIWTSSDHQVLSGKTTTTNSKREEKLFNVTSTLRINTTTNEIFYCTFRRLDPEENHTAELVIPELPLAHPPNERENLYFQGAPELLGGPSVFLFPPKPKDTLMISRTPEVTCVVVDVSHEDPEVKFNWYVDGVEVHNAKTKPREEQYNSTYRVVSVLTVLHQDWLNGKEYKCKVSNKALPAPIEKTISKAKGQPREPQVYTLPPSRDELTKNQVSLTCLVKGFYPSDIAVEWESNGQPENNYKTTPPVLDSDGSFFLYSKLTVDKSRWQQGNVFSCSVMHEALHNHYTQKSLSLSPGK
# test: ELISA on captured PD-L1-Fc, as in Example 18A
The entries below come with measured OD450 nM of sample-2 values attached.
experimental.readout: OD450 nM of sample-2

>  <binder>
18G4 (antibody, V domains shown, Mouse monoclonal from hybridoma; also called mouse monoclonal antibody 18G4) VH: QVQLQQPGTALVKPGASVKLSCKASGYTFSSYYIHWVKQRPGQGLEWIGNINPFNGGSIYNEKFKNKASLTVDTSSNTAYMQLSSLTSEDSAVYYCARWHFDYWGQGTSLTVSS VL: DIVMTQSPSSLAVTAGEKVTLKCKSSQSLLWSGNQNNYLSWYQQKQGQPPKLLIYGASIRESWVPDRFTGSGSGTDFTLTIGNVSAEDLAVYYCQHNHGSFLPYTFGGGTRLEIK

>  <recorded.value>
1.88 OD450

$$$$
>  <binder>
23A11-H3L5 (antibody, V domains shown, Human IgG1 constant region with N297A; biotinylated in the alanine-scan ELISA; also called 23A11-H3L5-bio; humanized 23A11) VH: LVQLVQSGAEVKKPGASVKLSCKASGYIFTTYWIHWVKQRPGQGLEWIGMIQPNSGGTKYNDQFKNRATLTVDKSISTAYMELSRLTSDDTAVYYCARGAGTVDYFDYWGQGTTLSISS VL: DIVLTQSPASLAVSVGQRATITCRASESVDIYGNSFMHWYQQKPGQAPKLLIYRASNLESGIPARFSGSGSRTDFTLTINPVEANDTATYYCQQSNDDPYTFGGGTKLETK

>  <recorded.value>
0.094 OD450

$$$$
>  <binder>
23F11-H4L4 (antibody, V domains shown, Human IgG1 constant region with N297A; biotinylated in the alanine-scan ELISA; also called 23F11-H4L4-bio; humanized 23F11) VH: QVQLVQSGAEVKKPGASVKLSCKASGYIFTTYWMHWVKQRPGQGLEWIGMIQPNSGGTKYNEKFKKKATLTVDKSISTAYMELSRLTSDDTAVYYCARGAGTVDYFDYWGQGSTLTVSS VL: DIVLTQSPASLAVSVGQRATITCRASESVDIYGNSFMHWYQQKPGQPPKLLIYRASNLESGIPARFSGSGSRTDFTLTINPVEANDTATYYCQQSTEDPYTFGGGTKLEIK

>  <recorded.value>
0.103 OD450

$$$$
>  <binder>
22C9 (antibody, V domains shown, Mouse monoclonal from hybridoma; also called mouse monoclonal antibody 22C9) VH: QVQLQQSGAELVKPGASVKLSCKASGYTFTSYWMHWVWQRPGQGLEWIGMIHPNSDITNCNENFKHTVTLTVDKSSSTAYMQLSSLTSEDSAVFYCARSDGSSYWYFDVWGTGTTVTVSS VL: SIVMTQTPKFLSVSAGDRVTITCKAGQSVNNDVAWYQQKPGQSPKLLIYYASNRYTGVPDRFTGSGYGTDFTFTISTVQAEDLAVYFCQQDFSSPLTFGAGTKLELK

>  <recorded.value>
0.309 OD450

$$$$
